# Experimental System: binding between IKKβ and full-length Regnase-1 (FL_Reg1) (Homo sapiens)
# Construct: made in house; host or cells: Expi293 cells
# Sequence (Q5D1E8 1-599): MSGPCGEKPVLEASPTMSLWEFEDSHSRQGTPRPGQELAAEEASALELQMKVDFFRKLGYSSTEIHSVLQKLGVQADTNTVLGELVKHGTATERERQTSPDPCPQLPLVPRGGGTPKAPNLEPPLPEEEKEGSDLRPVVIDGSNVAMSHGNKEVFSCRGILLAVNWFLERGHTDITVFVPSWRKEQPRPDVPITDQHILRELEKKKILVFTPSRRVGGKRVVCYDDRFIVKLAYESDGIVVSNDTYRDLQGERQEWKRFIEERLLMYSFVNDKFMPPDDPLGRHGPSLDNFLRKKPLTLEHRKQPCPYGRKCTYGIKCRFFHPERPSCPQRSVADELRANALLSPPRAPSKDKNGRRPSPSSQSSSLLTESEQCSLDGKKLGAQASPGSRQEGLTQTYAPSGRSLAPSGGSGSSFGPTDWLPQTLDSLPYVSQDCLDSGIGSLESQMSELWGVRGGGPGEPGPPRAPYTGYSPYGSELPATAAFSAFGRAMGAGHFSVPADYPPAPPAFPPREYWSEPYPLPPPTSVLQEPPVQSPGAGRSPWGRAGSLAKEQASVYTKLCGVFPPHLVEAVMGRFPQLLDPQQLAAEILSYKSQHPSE
# Protocol: Inhibition of kinase-Regnase-1 binding by the compounds (AlphaScreen), IKKβ
# Setup Conditions: Table 14; binding between IKKβ and Regnase-1; read-out: Binding inhibition FL_Reg1, 50% inhibition concentration (IKKβ)
pIC50: −log10 of the molar value. Residues, ends and D or L forms follow the SMILES beside them.
Quantity Kind: pIC50

INSERT INTO measurements (molecule, quantity_kind, value_prefix, observed_measurement) VALUES
  ('CC[C@H](C)[C@@H]1NC(=O)[C@H](C)NC(=O)[C@H](CCCNC(=N)N)NC(=O)[C@H](Cc2ccc(O)cc2)NC(=O)[C@H](Cc2ccc(O)cc2)NC(=O)[C@H](C)NC(=O)[C@H](CO)NC(=O)[C@H](CC(N)=O)NC(=O)[C@H](Cc2ccccc2)NC(=O)[C@H](CC(N)=O)NC(=O)[C@H](C)N(C)C(=O)C[C@@H](C(=O)N2CCCC2)NC(=O)[C@H](Cc2c[nH]c3ccccc23)NC1=O [PP7] (HELM PEPTIDE1{[meA].N.F.N.S.A.Y.Y.R.A.I.W.D.[C1CCN([*:1])C1]}$PEPTIDE1,PEPTIDE1,1:R1-13:R3$$$V2.0)', 'pIC50', '=', 4.82),
  ('CC[C@H](C)[C@@H]1NC(=O)[C@H](CCCNC(=N)N)NC(=O)[C@H](Cc2ccc(O)cc2)NC(=O)[C@H](Cc2c[nH]c3ccccc23)NC(=O)[C@H](CO)NC(=O)[C@H](CC(N)=O)NC(=O)[C@H](C)N(C)C(=O)C[C@@H](C(=O)N2CCCC2)NC(=O)[C@H](CC(C)C)NC(=O)CNC(=O)[C@H](Cc2c[nH]c3ccccc23)NC1=O [PP22] (HELM PEPTIDE1{[meA].N.S.W.Y.R.I.W.G.L.D.[C1CCN([*:1])C1]}$PEPTIDE1,PEPTIDE1,1:R1-11:R3$$$V2.0)', 'pIC50', '=', 4.57),
  ('CC[C@H](C)[C@@H]1NC(=O)[C@H](CCCCN)NC(=O)[C@H](Cc2ccc(O)cc2)NC(=O)[C@H](Cc2c[nH]c3ccccc23)NC(=O)[C@H](CO)NC(=O)[C@H](CO)NC(=O)[C@H]([C@@H](C)O)NC(=O)[C@@H]2CCCN2C(=O)[C@@H](C)N(C)C(=O)C[C@@H](C(=O)N2CCCC2)NC(=O)[C@H](Cc2c[nH]c3ccccc23)NC1=O [PP23] (HELM PEPTIDE1{[C[C@H](C(=O)[*:2])N(C)[*:1]].P.T.S.S.W.Y.K.I.W.D.[C1CCN([*:1])C1]}$PEPTIDE1,PEPTIDE1,1:R1-11:R3$$$V2.0)', 'pIC50', '=', 4.38),
  ('C[C@@H]1C(=O)N[C@@H](CCC(=O)O)C(=O)N[C@@H](CC(=O)O)C(=O)N[C@@H]([C@@H](C)O)C(=O)N2CCC[C@H]2C(=O)N[C@@H](CCC(=O)O)C(=O)N[C@@H](CC(=O)O)C(=O)N[C@@H](CC(=O)O)C(=O)N[C@@H](Cc2c[nH]cn2)C(=O)N[C@H](C(=O)N2CCCC2)CC(=O)N1C [PP25] (HELM PEPTIDE1{[C[C@H](C(=O)[*:2])N(C)[*:1]].E.D.T.P.E.D.D.H.D.[C1CCN([*:1])C1]}$PEPTIDE1,PEPTIDE1,1:R1-10:R3$$$V2.0)', 'pIC50', '<', 4.21);
